Please provide measured pIC50 for the entries that follow.
- Tested on: PANC-1
- measurement notes: cells
- test context: Homo sapiens, PANC-1, 48 h
- Description: Antiproliferative activity against human PANC-1 cells assessed as inhibition of cell growth incubated for 48 hrs by propidium iodide staining based fluorometer assay
Quick note: pIC50 means taking -log10 of the concentration in moles per liter.

Read the entry COc1cc(/C=C2\CC(C(C)C)C/C(=C\c3cc(OC)c(OC)c(OC)c3Br)C2=O)c(Br)c(OC)c1OC (stereo not drawn) and write its reported pIC50.
5.14

Read the entry COc1ccc(/C=C2\CN(Cc3ccccc3)C/C(=C\c3ccc(OC)c(OC)c3Cl)C2=O)c(Cl)c1OC and write its reported pIC50.
4.81

Read the entry COc1cc(/C=C2\CN(C)C/C(=C\c3cc(OC)c(OC)c(OC)c3Br)C2=O)c(Br)c(OC)c1OC and write its reported pIC50.
5.74

Reference for the values: ChEMBL document CHEMBL5257024
